# System: MOLT-4
# assay-summary: Cytotoxicity against human MOLT4 cells after 24 hrs by SRB assay
# Format: functional
# measurement-conditions: MOLT-4, 24 h
Quick reference: TGI of the listed items.

[
  {
    "line-notation": "O=C(/C=C/c1cc2ccccc2[nH]c1=O)c1ccc(O)cc1",
    "target-or-test-system": "MOLT-4",
    "TGI": "9.91 µM"
  },
  {
    "line-notation": "O=C(/C=C/c1cc2ccccc2[nH]c1=O)/C=C/c1cc2ccccc2[nH]c1=O",
    "target-or-test-system": "MOLT-4",
    "TGI": "> 100 µM"
  },
  {
    "line-notation": "COc1ccc(C(=O)/C=C/c2cc3ccccc3[nH]c2=O)cc1",
    "target-or-test-system": "MOLT-4",
    "TGI": "> 100 µM"
  },
  {
    "line-notation": "O=C(/C=C/c1cc2ccccc2[nH]c1=O)c1ccc(Cl)cc1",
    "target-or-test-system": "MOLT-4",
    "TGI": "> 100 µM"
  }
]

---

# Tested on: SF-268
# assay-summary: Cytotoxicity against human SF268 cells after 24 hrs by SRB assay
# Type: functional
# measurement-conditions: SF-268, 24 h

[
  {
    "line-notation": "COc1ccc(C(=O)/C=C/c2cc3ccccc3[nH]c2=O)cc1",
    "GI50, µM": 2.85
  },
  {
    "line-notation": "O=C(/C=C/c1cc2ccccc2[nH]c1=O)c1ccc(Cl)cc1",
    "GI50, µM": 7.15
  },
  {
    "line-notation": "O=C(/C=C/c1cc2ccccc2[nH]c1=O)/C=C/c1cc2ccccc2[nH]c1=O",
    "GI50, µM": 3.75
  },
  {
    "line-notation": "O=C(/C=C/c1cc2ccccc2[nH]c1=O)c1ccc(O)cc1",
    "GI50, µM": 3.76
  }
]

---

# System: EKVX
# assay-summary: Cytotoxicity against human EKVX cells after 24 hrs by SRB assay
# Assay type: cell-based
Listed below: LC50 values for each entry.
measurement-label: LC50

[
  {
    "line-notation": "O=C(/C=C/c1cc2ccccc2[nH]c1=O)c1ccc(Cl)cc1",
    "measurement-label": "LC50",
    "observed-result": "> 100 µM"
  },
  {
    "line-notation": "COc1ccc(C(=O)/C=C/c2cc3ccccc3[nH]c2=O)cc1",
    "measurement-label": "LC50",
    "observed-result": "> 100 µM"
  },
  {
    "line-notation": "O=C(/C=C/c1cc2ccccc2[nH]c1=O)/C=C/c1cc2ccccc2[nH]c1=O",
    "measurement-label": "LC50",
    "observed-result": "> 100 µM"
  },
  {
    "line-notation": "O=C(/C=C/c1cc2ccccc2[nH]c1=O)c1ccc(O)cc1",
    "measurement-label": "LC50",
    "observed-result": "55.2 µM"
  }
]

---

# Test system: BT-549
# assay-summary: Cytotoxicity against human BT549 cells after 24 hrs by SRB assay
# Type: functional
# measurement-conditions: BT-549, 24 h

[
  {
    "line-notation": "O=C(/C=C/c1cc2ccccc2[nH]c1=O)/C=C/c1cc2ccccc2[nH]c1=O",
    "TGI (µM)": 6.15
  },
  {
    "line-notation": "O=C(/C=C/c1cc2ccccc2[nH]c1=O)c1ccc(O)cc1",
    "TGI (µM)": 5.35
  },
  {
    "line-notation": "O=C(/C=C/c1cc2ccccc2[nH]c1=O)c1ccc(Cl)cc1",
    "TGI (µM)": 17.1
  },
  {
    "line-notation": "COc1ccc(C(=O)/C=C/c2cc3ccccc3[nH]c2=O)cc1",
    "TGI (µM)": 7.9
  }
]

Sourced from ChEMBL document CHEMBL2086296
